For each record, write down the corresponding pKi.
- experimental_system: UniProt:P15086
- Sequence (P15086 whole entry): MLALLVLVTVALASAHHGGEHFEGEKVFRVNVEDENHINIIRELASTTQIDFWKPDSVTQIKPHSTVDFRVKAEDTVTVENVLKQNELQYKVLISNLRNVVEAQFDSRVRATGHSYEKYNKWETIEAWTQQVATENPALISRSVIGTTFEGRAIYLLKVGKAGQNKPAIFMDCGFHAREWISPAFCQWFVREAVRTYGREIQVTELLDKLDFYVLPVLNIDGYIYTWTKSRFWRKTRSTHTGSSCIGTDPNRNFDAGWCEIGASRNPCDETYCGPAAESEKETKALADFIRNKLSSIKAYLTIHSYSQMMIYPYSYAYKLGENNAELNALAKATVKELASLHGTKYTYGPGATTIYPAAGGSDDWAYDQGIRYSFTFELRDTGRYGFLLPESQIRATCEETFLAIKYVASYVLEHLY
- assay_overview: Inhibition of human recombinant carboxypeptidase B expressed in Pichia pastoris system
The meaning of pKi here: minus log10 of the concentration in molar units.

What pKi value was documented for this molecule, `O=C(C1CC1)N(Cc1ccccc1)c1nc(-c2ccccc2)cs1` ?
5.35

What pKi value was documented for this molecule, `O=S(=O)(NCc1cccs1)c1ccc(-c2nnc(SCc3ccccc3Cl)o2)cc1` ?
4.40

What pKi value was documented for this molecule, `O=C(CSc1nnc(-c2ccccc2F)o1)OCc1ccccc1` ?
4.17

What pKi value was documented for this molecule, `Cc1cc(S(=O)(=O)N(Cc2ccco2)Cc2ccccc2Cl)ccc1-n1cnnn1` ?
4.78

What pKi value was documented for this molecule, CCOC(=O)C(Sc1nnc(COc2ccc(CC)cc2)n1CC)C(C)C (stereo unspecified) ?
4.97

What pKi value was documented for this molecule, `Cc1ccc(C)c2c1[nH]c1nc(SCC(=O)c3ccc(F)cc3)nnc12` ?
4.82
